# system.name: CTR ECD (Homo sapiens, UniProt P30988)
# Construct: pHLsec/hCTR.34–141-H6 (H-pSL003); H6 (His6) (C); made in house; host or cells: HEK293T
# Sequence (P30988 34-141): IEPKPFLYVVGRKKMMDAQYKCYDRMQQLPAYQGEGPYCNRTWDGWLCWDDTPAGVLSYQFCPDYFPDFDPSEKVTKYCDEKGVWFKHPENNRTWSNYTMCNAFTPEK
# assay.protocol: FP competition peptide binding assay with purified CTR ECD, FITC-sCT(22–32) probe
# condition.set: Figure 1d experiment set; CTR ECD 500 nM, FITC-sCT(22–32) 10 nM; mean ± SD of N = 3 independent experiments; pKI = –log10[KI] (M)
Where no end group is shown, it is not given here.
readout.label: Ki (M)

Study these solved cases before continuing.
YPRTNTGPGTP-NH2 [sCT(22–32) S29P] :: 3.47e-07
YPRTDTGPGTP-NH2 [sCT(22–32) N26D/S29P] :: 3.16e-07

1. YPRTDTGSGTP-NH2 [sCT(22–32) N26D]
2. YPRTNTGSGTP-NH2 [sCT(22–32), reference compound]
**Q:** Higher Ki: 1 or 2 ? Label of pick, please.
**A:** 2
